TARGET DESC: T1, recombinant human IL-17A (human, UniProt Q16552 24-155)
T1 construct: Bought recombinant protein (Peprotech AF-200-17); also called Peprotech AF-200-17
T1 sequence (Q16552 24-155): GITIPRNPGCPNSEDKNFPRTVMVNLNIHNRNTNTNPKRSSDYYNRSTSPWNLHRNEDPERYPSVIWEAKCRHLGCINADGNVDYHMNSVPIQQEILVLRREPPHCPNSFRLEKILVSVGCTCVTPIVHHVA
TEST SUMMARY: SPR (BIAcore T200), IL-17A coupled to CM5 chip, single-cycle kinetics
METRIC NAME: kon (M⁻¹ s⁻¹)

BINDER: VH 1.1.1 (clone 1.1 expressed from phagemid vector: with linker residues and His tag) (VHH, Human single VH domain; also called Family 1 (clone 1.1)) VHH: EVQLVESGGGLVQPGGSLRLSCAASGFTFSSYSMYWVRQAPGKGLEWVANIKQDGSEKYYVDSVKGRFTISRDNAKNSLFLQMNSLRAEDTAVYYCAKGEILPLHFDYWGQGTLVTVSS
METRIC NAME: kon
RESULT: 296000

BINDER: Family 4 (clone 4.1) (VHH, Human single VH domain) VHH: QVQLVESGGGLVQPGGSLRLSCAASGFTFSSYWMNWVRQAPGKGLEWVATIKQDGSEKYYVDSVKGRFTISRDNATNSLFLQMNSLRAEDTAVYYCARGDTIFDGAFDIWGQGTMVTVSS
METRIC NAME: kon
RESULT: 5860

BINDER: Family 5 (clone 5.1) (VHH, Human single VH domain) VHH: EVQLVESGGGLVQPGGSLRLSCAASGFTFSSYWMSWVRQAPGKGLEWVANIKQDGSEKYYVDSVKGRFTISRDNAKNSLYLQMNSLRAEDTAVYYCAHGQWPFFDYWGQGTMVTVSS
METRIC NAME: kon
RESULT: 304000

BINDER: Family 2 (clone 2.1) (VHH, Human single VH domain; also called VH 2.1.1) VHH: QVQLVESGGGLVQPGGSLRLSCAASGFTFSSYGMGWVRQAPGKGLEWVAKIKQDGSEKDYVDSVKGRFTISRDNAKKSLFLQMNSLRAEDTAVYYCARESIFGIPEDWGQGTLVTVSS
METRIC NAME: kon
RESULT: 1.22e+06
